protocol-description: growth inhibition of yeast control strain, primary screen, counter-screen for post-Golgi transport modulator project (AID 738)
condition-description: efflux-deficient yeast background strain, growth absorbance A615, 16 h; at 10 µM; active compounds read high
Among all 98,000 compounds or so, about 4,900 (5%) were called active. This is one part of a sample in which actives are shown more often than they occur.
Known inhibition of a selection of compounds
Write down the numeric answer in % and omit the unit.

A selection of reference data follows.
- compound: "COc1ccc(-c2nc(CCNC(=O)c3ccc(Br)o3)cs2)cc1"
  inhibition, %: 36.5
- compound: "C=CCOC(=O)C1=C(C)NC(C)=C(C(=O)OCC=C)C1c1cccs1"
  inhibition, %: 39.5
- compound: "O=c1c2ccccc2nnn1CSc1nnnn1-c1ccccc1"
  inhibition, %: 19.6
- compound: "CC(=O)N1CCN(C(=O)Nc2cccc(C(F)(F)F)c2)CC1"
  inhibition, %: -1.91
- compound: "O=C1CCN(C(=O)Nc2ccccc2)N1"
  inhibition, %: 1.84

Lookup: # lookup: inhibition of O=C(NCCc1ccccn1)c1ccc(COc2ccccc2)o1
Found: -1.77

Lookup: Now the compound CC1C/C(=N/NC(=O)c2cccs2)CC(C)(C)C1 (stereo not drawn)
Found: 9.76

Lookup: Now the compound COc1cc2c(cc1OC)C(C(=O)NCc1ccco1)C1c3ccccc3CCN1C2=O (stereo not drawn)
Found: 4.7

Lookup: Now the compound O=C(O)CSCC(=O)Nc1cccc(C(F)(F)F)c1
Found: 4.42

Lookup: Now the compound CC(CNC(=O)c1ccc(Br)o1)NC(=O)c1ccc(Br)o1 (stereo not drawn)
Found: 18.5
